# Test system: A549
# Procedure text: NCI tumour cell line growth inhibition, 48 h
Activity calls are given as the source filed them. Rule as the data show it: active = GI50 up to about 1.1 µM and inactive = higher.
Reported GI50 values follow for various compounds

{"Compound": "O=C1C=CC(=O)N1c1ccc(I)cc1", "GI50": "22.9 µM (inactive)"}
{"Compound": "COc1ccc(/C=C/C(=O)c2cc(C(=O)O)c(OC)cc2OC)cc1OC", "GI50": "> 100 µM (inactive)"}
{"Compound": "CCOC(=O)C(=[N+]=[N-])C(=O)C1(C(=O)OCC)CCN(C(=O)c2ccccc2)C1=O (configuration not stated)", "GI50": "> 100 µM (inactive)"}
{"Compound": "Cc1nc(O)nc2nc3ccc(Cl)cc3c(N(CCO)CCO)c12", "GI50": "> 100 µM (inactive)"}
{"Compound": "N#CC(NNC(=O)c1c(Cl)c(Cl)c(Cl)c(Cl)c1-c1nc2cc(C(=O)c3ccccc3)ccc2[nH]1)c1cccc(Oc2ccccc2)c1 (configuration not stated)", "GI50": "30.9 µM (inactive)"}

Qu. Look up GI50 of O=[N+]([O-])c1ccc(O)c(/C=N/CC2CCCN3CCCCC23)c1 (configuration not stated) and report it.
Ans. 91.4 µM (inactive)

Qu. Using the record for `C[C@]1(O)CC(=O)c2c(c(-c3ccc4cc5c(c(O)c4c3O)C(=O)C[C@@](C)(O)C5)c3cccc(O)c3c2O)C1` , state its measured GI50.
Ans. 4.24 µM (inactive)

Qu. Give the value of GI50 reported for the following: `CCCCCCCCCc1cc(-c2ccc(C=O)s2)sc1-c1ccc(C=O)s1`
Ans. 53.1 µM (inactive)

Qu. Tell me GI50 reported for `CN(C)CCNCc1ccc2c(-c3ccccc3)nc3cc(Cl)c(Cl)cc3n12`
Ans. 10.1 µM (inactive)

Qu. Determine from records and report GI50 for `CC1(C)C(=O)N(O)C(C)(C)N1O`
Ans. > 10 µM (inactive)

Qu. Supply GI50 value. Item: `CCOC(=O)C1(C(=O)OCC)C(C(C)(C)C)=C(C)c2ccccc21`
Ans. 18.1 µM (inactive)

Qu. // Input: `O=Nc1c(-c2cccc([N+](=O)[O-])c2)nc2cnccn12` . Output its GI50 only.
Ans. 29.5 µM (inactive)

====

# Test system: DU-145
# Procedure text: NCI tumour cell line growth inhibition, 48 h
Active and inactive are the calls of the source. Rule as the data show it: active = GI50 up to about 1.1 µM and inactive = higher.
Pick one and only one: 1 (active), 0 (inactive)

{"Molecule": "CCOP(=O)(CN1CCNCCN(CP(=O)(OCC)OCC)CC1)OCC", "Label": 0}
{"Molecule": "CN(Cc1c[n+]([O-])c2nc(N)nc(N)c2n1)c1ccc(C(=O)NC23CC4CC(CC(C4)C2)C3)cc1", "Label": 0}
{"Molecule": "CC(C)C(/C=C/c1ccc(Cl)c(Cl)c1)=N\\NC(=O)N/N=C(/C=C/c1ccc(Cl)c(Cl)c1)C(C)C", "Label": 0}
{"Molecule": "CCN(CC)c1ccc2cc(-c3csc(-c4ccc(N(C)C)cc4)n3)c(=O)oc2c1", "Label": 0}
{"Molecule": "Cc1nc(O)nc2nc3ccc(Cl)cc3c(N(CCO)CCO)c12", "Label": 0}
{"Molecule": "c1ccc(CCCNc2nnnc3ccccc23)cc1", "Label": 0}
{"Molecule": "Clc1ccc(OCC2NC3C=CC32)cn1 (stereo not given)", "Label": 0}
{"Molecule": "Cc1c/c(=N\\c2ccc3c(c2)c(N)cc(C)[n+]3C)nc(N)n1C", "Label": 0}
{"Molecule": "NNS(=O)(=O)c1cc(C(=O)O)cc(C(=O)O)c1", "Label": 0}

// next entry
Qu. Query: recorded result category for COc1cc(C2C=C(c3ccccc3)Oc3cc4c(cc32)OCO4)cc(OC)c1OC (stereo not given) in this test
Ans. 1

====

# Test system: SF-539
# Procedure text: NCI tumour cell line growth inhibition, 48 h
Calls of active or inactive are those of the source. Cut-off read from the data, not from the text of the source: active = GI50 up to about 1.1 µM and inactive = higher.
Allowed answers: YES (active), NO (inactive)

Worked examples follow.
{"Structure string": "Cc1cc(N(CCC#N)CCC#N)ccc1/C=C(\\NC(=O)/C=C/c1ccccc1)C(=O)NN", "Label": "NO"}
{"Structure string": "O/N=C1/CCCC/C1=C/C=C/c1ccccc1", "Label": "NO"}
{"Structure string": "N#Cc1c(N2CCCC2)nsc1Nc1ccccc1", "Label": "NO"}
{"Structure string": "CC(=O)O[C@@]1(C)[C@@H](C)C(=O)O[C@@H]2CCN3CC=C(COC(=O)[C@]1(C)O)[C@H]23", "Label": "NO"}
{"Structure string": "[N-]=[N+]=NC[C@H]1OCO[C@H](CN=[N+]=[N-])[C@@H](OCCOCCCl)[C@@H]1OCCOCCCl", "Label": "NO"}

Qu. Which outcome did this test record for the compound `Clc1cccc2[nH]ncc12` ?
Ans. NO

Qu. Assay outcome for `O=C(c1ccco1)N(C(=S)N1CCN(c2ccccc2)CC1)C1CCCCC1` : what was it?
Ans. NO

Qu. Which outcome was assigned to `Cn1c(=O)oc2cc(Br)ccc21` in this test?
Ans. NO

Qu. What was the test verdict on `COc1ccc2c(c1)c(=O)c1c(NCCCN(C)CCCNc3ccc4c(=O)n(CCN(C)C)c(=O)n5c6ccc(OC)cc6c(=O)c3c45)ccc3c(=O)n(CCN(C)C)c(=O)n2c31` ?
Ans. YES

Qu. Please share the test call associated with `CCN(CC)c1ccc2cc(-c3csc(-c4ccc(N(C)C)cc4)n3)c(=O)oc2c1` .
Ans. NO

====

# Lookup of reported GI50 keyed by entry
# System: NCI/ADR-RES
# Procedure text: NCI tumour cell line growth inhibition, 48 h
Calls of active or inactive are those of the source. No stated cut-off is given here; in the data, active = GI50 up to about 1.1 µM and inactive = higher.

Example entries and their recorded answers appear below.
{"Molecule": "CSC(=Nc1nnc(-c2ccc([N+](=O)[O-])cc2)s1)SC", "Property label": "GI50", "Val": "33.5 µM (inactive)"}
{"Molecule": "CCOc1cc(NC(C)=O)ccc1C(=O)NN1C(=O)C(Oc2ccccc2)C1c1ccc(O)c(OC)c1 (stereo not given)", "Property label": "GI50", "Val": "37.4 µM (inactive)"}
{"Molecule": "Cc1ccc(Nc2sc(C)cc2C#N)c([N+](=O)[O-])c1", "Property label": "GI50", "Val": "98.9 µM (inactive)"}

Qu. Give GI50; test system NCI/ADR-RES; molecule COc1ccc(-n2cnc3c(NC(Cc4ccccc4)C(=O)O)ncnc32)cc1 (stereo not given)
Ans. > 100 µM (inactive)

Qu. Fill in: GI50 on NCI/ADR-RES, entry `CCN(CC)CC(=O)Nc1c(C(N)=O)nnn1Cc1cc(Cl)c(C(=O)c2ccc(Cl)cc2)c(Cl)c1`
Ans. 15.8 µM (inactive)

====

# Tested on: HOP-92
# Procedure text: NCI tumour cell line growth inhibition, 48 h
Active and inactive are the calls of the source. Cut-off read from the data, not from the text of the source: active = GI50 up to about 1.1 µM and inactive = higher. Where a SMILES comes first, the peptide text is derived from it.
Property label: GI50

{"Compound": "CC(C)CC(NC(=O)C(Cc1ccccc1)NC(=O)C(Cc1c[nH]c2ccccc12)NC(=O)CNC(=O)C(N)Cc1ccc(O)cc1)C(=O)O (centres undefined) (H-YGWFL-OH; configuration not given here)", "GI50": "14 µM (inactive)"}
{"Compound": "CN(C)c1ccc(/C=C(\\NC(=O)c2ccccc2)C(=O)NC(Cc2c[nH]c3ccccc23)C(=O)O)cc1 (centres undefined)", "GI50": "> 100 µM (inactive)"}

Qu. State, in one line, measured GI50 of `O=C1C(c2ccccc2)=C(O)c2cccc3cccc1c23`
Ans. 29 µM (inactive)

Qu. Identify measured GI50 corresponding to `O=C(Cc1ccc(Cl)c(Cl)c1)NCC1(N2CCCCC2)CCCCC1`
Ans. 78.7 µM (inactive)

Qu. Entry `COc1ccc(C(=O)N(Cc2cccnc2)C(=S)N(Cc2cccnc2)C(=O)c2ccc(OC)cc2)cc1` needs its GI50 filled in; supply it.
Ans. 36.6 µM (inactive)

Qu. Return the recorded GI50 value; entry: `COc1cc2c(c(OC)c1OC)-c1ccc(SC)c(=O)cc1[C@@H](OC(C)=O)CC2`
Ans. > 100 µM (inactive)

Qu. Consider the compound O=C1/C(=C/c2ccc(Cl)cc2)N=C(c2ccccc2)N1C1Nc2cc3c(cc2S1)NC(N1C(=O)/C(=C/c2ccc(Cl)cc2)N=C1c1ccccc1)S3 (centres undefined) . State its measured GI50.
Ans. 48.6 µM (inactive)

Qu. Give the reported value of GI50 for this record: `O=[N+]([O-])c1ccc2c3c1[C@@H]1O[C@@H]1c1cccc(c1-3)[C@@H]1O[C@H]21`
Ans. 9.46 µM (inactive)

Qu. Give GI50 for `COC(=N)C(C)C`
Ans. > 100 µM (inactive)

Qu. Identify measured GI50 corresponding to `C/C(=N\NC(N)=S)c1cc(C)c(C)cc1C`
Ans. > 100 µM (inactive)

Qu. Write down GI50 measured for item CCOC(=O)C1C(=O)CC(O)(OCC)C(C(=O)OCC)C1c1ccc(OC)cc1 (centres undefined)
Ans. > 100 µM (inactive)

Qu. Return GI50 (reported value) for this compound: `Nc1nc(N)c2nnn(C[C@H]3CC[C@@H](CO)C3)c2n1`
Ans. > 100 µM (inactive)

These entries and their values trace back to ChEMBL document CHEMBL1201862.
